assay_system: 80S Ribosome (Homo sapiens) (UniProt P08865+P42677+P62753+P15880+P23396+P61247+P62701+P22090+P46782+P62081+P62241+P46781+P46783+P62280+P25398+P62277+P62263+P62841+P62244+P62249+P08708+P62269+P39019+P60866+P63220+P62266+P62847+P62851+P62854+P62979+P62857+P62273+P62861+P39023+P36578+P46777+Q02878+P18124+P62424+P62917+P32969+P27635+P62906+P62913+P30050+P26373+P40429+P50914+P61313+P18621+Q07020+Q02543+P84098+P46778+P35268+P62829+P62750+P83731+P61254+P61353+P46776+P46779+P47914+P62888+P62899+P62910+P49207+P42766+P18077+Q9Y3U8+P83881+P61927+P61513+P63173+P62891+P62945+P05388+P05386)
test_protocol: Induction of ribosome to readthrough in human A-T lymphoblastoid cells assessed as ATM ser1981 autophosphorylation at 30 uM after 4 days by PTT-ELISA assay
Format: subcellular
Calls of active or inactive are those of the source. The calls are words filed in the database; no cut-off is given here.
property_measured: Flu intensity

For orientation, consider the following solved cases.
> print(dat)
                           structure.smiles  experimental.result
1     O=C1NC(=S)S/C1=C\c1ccc(-c2ccccc2Cl)o1                 3.55
2         O=C1NC(=S)S/C1=C\c1c[nH]c2ccccc12             inactive
3          N=C1NC(=O)/C(=C/c2cc3ccccc3o2)S1             inactive
4  N=C1NC(=O)/C(=C/c2ccc(-c3cccc(F)c3)o2)S1             inactive

Q) Entry under review: "O=c1ccn(Cc2ccc(-c3ccccc3)o2)c(=O)[nH]1" . Reported Flu intensity?
A) 3.42

Q) Entry under review: "O=C1NC(=S)S/C1=C\c1ccc(-c2cccc(F)c2)o1" . Reported Flu intensity?
A) 3.44
